Tested on: cattle isolates
Assay: Test of antibiotic resistance in cattle isolates towards various antibiotics (share of isolates per category)
Assay type: cell-based, lactic acid bacteria (LAB)
Conditions: share of the 19 cattle isolates
From the text: The following are examples of types of drugs that would be included in the three categories: Category I: quinolones, vancomycin, dalfopristin/quinupristin, third generation cephalosporins; Category II: ampicillin, first and second generation cephalosporins, erythromycin, trimethoprim/sulfamethoxazole; and Category III: inophores (monensin) and polymixins (Polymixin B and colistin). […]
Metric: % Intermediate (%)

[[record]]
molecule = "CC1(C)S[C@@H]2[C@H](NC(=O)[C@H](N)c3ccccc3)C(=O)N2[C@H]1C(=O)O [AM, Ampicillin]"
reported_result = 0.0

[[record]]
molecule = "CC[C@H]1OC(=O)[C@H](C)[C@@H](O[C@H]2C[C@@](C)(OC)[C@@H](O)[C@H](C)O2)[C@H](C)[C@@H](O[C@@H]2O[C@H](C)C[C@H](N(C)C)[C@H]2O)[C@](C)(O)C[C@@H](C)C(=O)[C@H](C)[C@@H](O)[C@]1(C)O [EM, Erythromycin]"
reported_result = 5.0

[[record]]
molecule = "CN(C)[C@@H]1C(O)=C(C(N)=O)C(=O)[C@@]2(O)C(O)=C3C(=O)c4c(O)cccc4[C@@](C)(O)[C@H]3C[C@@H]12 [TC, Tetracycline]"
reported_result = 0.0

[[record]]
molecule = "Cc1c(F)c(N2CCNC(C)C2)cc2c1c(=O)c(C(=O)O)cn2C1CC1 (centres unmarked) [GP, Grepafloxacin]"
reported_result = 10.0

[[record]]
molecule = "C[C@H]1COc2c(N3CCN(C)CC3)c(F)cc3c(=O)c(C(=O)O)cn1c23 [LE, Levofloxacin]"
reported_result = 37.0


These entries and their values trace back to patent US7323166B2.
